B1: Activity-dependent neuroprotector homeobox protein, residues 770 to 810; numbered along this chain, Q9H2P0 (parent)
chain: FLTKYFNKQPYPTRREIEKLAASLWLWKSDIASHFSNKRKK

# Variants of: B1
# assay.info: abundance fitness (aPCA) (normalised: wild type 0, dead -1); higher = more abundant; growth selection in yeast, the domain comes from the species named
# experimental.parameters: Homo sapiens
measured.parameter: abundance fitness
Output: the number by itself.

>>> print(df.to_string())
   mutation  measured_parameter  numeric_readout
0      P10W   abundance fitness            0.059
1       T3L   abundance fitness           -0.759
2      A21C   abundance fitness           -0.099
3      K38R   abundance fitness           -0.115

Lookup: State the recorded abundance fitness for this entry: "I31Y"
Found: -0.189

Lookup: Could you share which abundance fitness value was measured for "W25F" ?
Found: -0.168

Lookup: Could you tell me which abundance fitness is on file for "R14D" ?
Found: -0.826

Lookup: Report abundance fitness for "L20C" please.
Found: 0.124
